Assay: Subcutaneous and intravenous pharmacokinetics in healthy and irradiated Rhesus Macaques
Format: in vivo
Conditions: male, rhesus monkey, plasma, sc, 1 mg/kg, SC, healthy; single dose 1 mg/kg; read-out: exposure (AUCINF)
Description: We performed a cross-over comparison of subcutaneous and intravenous pharmacokinetics of Rx100.L-Lysine in six healthy Rhesus Macaques and subcutaneous pharmacokinetic and Pharmacodynamics of Rx100.L-Lysine after a single irradiation in six Rhesus Macaques. […]
value type: AUC(0-inf)

Query block: # get_value(readout='AUC(0-inf)', item= CCCCCCCC/C=C\CCCCCCCCOP(O)(O)=S [Rx100.L-Lysine] )
Result block: 63700 ng·h/mL

---

Experiment: Subcutaneous and intravenous pharmacokinetics in healthy and irradiated Rhesus Macaques
Assay type: in vivo
Settings: male, rhesus monkey, plasma, sc, 1 mg/kg, SC, healthy; single dose 1 mg/kg; read-out: half-life (converted)
value type: half-life (min)
Give your result in min as a bare value.

Query block: # get_value(readout='half-life', item= CCCCCCCC/C=C\CCCCCCCCOP(O)(O)=S )
Result block: 630
